assay-setup: buffer; pH 7.4; 200.0 µM
metric: solubility kinetic

Form: compound = Cn1c(N2CCCC2)nc2c1c(=O)[nH]c(=O)n2C ; solubility kinetic = > 37.4 µg/mL

Form: compound = O=C(c1ccc2ncsc2c1)N1CCCCC1 ; solubility kinetic = > 36.9 µg/mL

---

assay-setup: buffer; pH 7.4; 200.0 µM
Each entry below lists one item and its recorded solubility kinetic value.

Form: molecule = CC(C)CCc1noc(CN(C)CCC2CCOCC2)n1 ; solubility kinetic = > 44.3 µg/mL

Form: molecule = Cc1ccc(C2NCCS2)cc1 (stereo not given) ; solubility kinetic = > 26.9 µg/mL

Form: molecule = O=C1NCCCCC1NS(=O)(=O)c1ccc(Cl)cc1 (stereo not given) ; solubility kinetic = > 45.4 µg/mL

Form: molecule = COc1ccc(CNc2ncccn2)cc1OC ; solubility kinetic = > 36.8 µg/mL

Form: molecule = O=C(Nc1cccc(C(F)(F)F)c1)c1cncs1 ; solubility kinetic = > 40.8 µg/mL

Form: molecule = COc1cccc2c(=O)c3c([nH]c12)OC(C)(C)C3 ; solubility kinetic = > 36.8 µg/mL

Form: molecule = CC(C)C1/C(=N/O)CC(c2ccccc2)NC1c1ccccc1 (stereo not given) ; solubility kinetic = < 0.3 µg/mL

Form: molecule = Cc1ccc(O)c(CO)n1 ; solubility kinetic = > 20.9 µg/mL

Form: molecule = O=C(O)C1C2C=CC(O2)C1C(=O)Nc1cccc(C(F)(F)F)c1 (stereo not given) ; solubility kinetic = > 49.1 µg/mL

Form: molecule = CCCc1nc2ccccc2c(C(=O)OCC(=O)NC2CC2)c1CC ; solubility kinetic = > 51.1 µg/mL

Others:
Form: molecule = CN1CCN(CCn2c(=S)[nH]c3ccccc3c2=O)CC1 ; solubility kinetic = > 45.7 µg/mL

Form: molecule = CCc1ccc(-c2cc(C(=O)O)c3ccccc3n2)s1 ; solubility kinetic = > 42.5 µg/mL

Form: molecule = S=C(Nc1ccccc1)N1CCN(C/C=C/c2ccccc2)CC1 ; solubility kinetic = > 50.6 µg/mL

Form: molecule = COc1ccc(CCCc2n[nH]c(=S)o2)cc1C ; solubility kinetic = > 39.7 µg/mL

Form: molecule = Cc1ccc(CN2CC(C(=O)Nc3ncccc3C)CC2=O)cc1 (stereo not given) ; solubility kinetic = > 48.5 µg/mL

Form: molecule = O=S(=O)(Cc1ccccc1)Nc1ccc(F)cc1 ; solubility kinetic = > 39.8 µg/mL

Form: molecule = Cl.O=C(OCCN1CCCCC1)c1cccc(F)c1 ; solubility kinetic = > 43.2 µg/mL

---

Each entry below lists one item and its recorded solubility kinetic value.
assay-setup: buffer; pH 7.4; 200.0 µM
Write the answer as a number in µg/mL, unit excluded.

Record excerpt, results attached:
Form: compound = CNS(=O)(=O)c1cccc(C(=O)OCC(=O)N2CCCC2)c1 ; solubility kinetic = 45.2

Form: compound = COc1cc(OC)c(NC(C)C(=O)N2CCCC2)cc1Cl (stereo unspecified) ; solubility kinetic = 45.1

Form: compound = Cc1cc(NC(=O)COc2c(C)cccc2C)no1 ; solubility kinetic = 6.9

Others:
Form: compound = O=C(NCC1CCCCC1)c1ccc(F)cc1Cl ; solubility kinetic = 20.4

Form: compound = CC1CCCCC12NC(=O)N(CC(=O)OCc1ccccc1F)C2=O (stereo unspecified) ; solubility kinetic = 17.2

Form: compound = O=C(Nc1ccccc1F)c1ccc(-c2cccc([N+](=O)[O-])c2)o1 ; solubility kinetic = 2
